The measurements presented in this section are drawn from BindingDB's records for doi:10.1016/j.bioorg.2017.02.010.

As a worked illustration, we turn to IC50 data collected for UniProtKB Q9N1N9.
Sequence (Q9N1N9 whole entry): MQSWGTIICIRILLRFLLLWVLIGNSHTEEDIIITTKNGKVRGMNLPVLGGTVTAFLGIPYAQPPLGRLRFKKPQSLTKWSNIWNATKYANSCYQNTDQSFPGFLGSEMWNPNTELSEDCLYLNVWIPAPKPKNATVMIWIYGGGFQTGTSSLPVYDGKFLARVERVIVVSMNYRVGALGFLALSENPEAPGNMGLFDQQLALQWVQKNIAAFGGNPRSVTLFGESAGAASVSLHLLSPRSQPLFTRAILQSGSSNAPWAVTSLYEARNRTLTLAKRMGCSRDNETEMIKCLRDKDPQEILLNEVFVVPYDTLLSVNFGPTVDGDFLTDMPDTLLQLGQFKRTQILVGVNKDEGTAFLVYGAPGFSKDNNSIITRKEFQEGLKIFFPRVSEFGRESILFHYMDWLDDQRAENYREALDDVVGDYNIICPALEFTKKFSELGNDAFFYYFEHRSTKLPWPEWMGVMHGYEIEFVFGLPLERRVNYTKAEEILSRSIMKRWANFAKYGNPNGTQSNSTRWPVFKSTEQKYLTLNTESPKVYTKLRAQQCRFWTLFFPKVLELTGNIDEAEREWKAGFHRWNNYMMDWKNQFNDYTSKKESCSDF

Exercise: State the recorded IC50 for this entry: CC(=O)NC(Cc1cccc(F)c1)C(=O)Oc1ccc([N+](=O)[O-])cc1 (stereo unspecified)
Key: 142 µM

Exercise: One more compound: CC(=O)NC(Cc1ccccc1F)C(=O)O (stereo unspecified)
Key: 217 µM

Exercise: What would you report for CC(=O)NC(Cc1cccc(F)c1)C(=O)Nc1ccc(Cl)cc1 (stereo unspecified) ?
Key: 170 µM

Exercise: Another compound to look at: CC(=O)NC(Cc1ccccc1F)C(=O)Nc1ccc(C)cc1 (stereo unspecified)
Key: 113 µM

Exercise: # repeat for CC(=O)NC(Cc1ccc(F)cc1)C(=O)O (stereo unspecified)
Key: 227 µM

Exercise: // repeat for CC(=O)NC(Cc1ccccc1F)C(=O)Oc1ccccc1 (stereo unspecified) and report
Key: 30 µM

Exercise: Follow-up entry: CC(=O)NC(Cc1cccc(F)c1)C(=O)Nc1ccc([N+](=O)[O-])cc1 (stereo unspecified)
Key: 120 µM

Exercise: Ok, now CC(=O)NC(Cc1ccccc1F)C(=O)Oc1ccc(C)cc1 (stereo unspecified)
Key: 85.4 µM

Exercise: Now the compound CC(=O)NC(Cc1ccccc1F)C(=O)Nc1ccccc1 (stereo unspecified)
Key: 121 µM

Exercise: Same question for CC(=O)NC(Cc1ccccc1F)C(=O)Nc1ccc([N+](=O)[O-])cc1 (stereo unspecified) please.
Key: 154 µM

Exercise: And CC(=O)NC(Cc1ccc(F)cc1)C(=O)Nc1ccc([N+](=O)[O-])cc1 (stereo unspecified) ?
Key: 162 µM
